Experimental Target: Mitogen-activated protein kinase 9 (Homo sapiens, UniProt P45984); also: in the data inactive means no Kd found up to 30 µM
Sequence (P45984 whole entry): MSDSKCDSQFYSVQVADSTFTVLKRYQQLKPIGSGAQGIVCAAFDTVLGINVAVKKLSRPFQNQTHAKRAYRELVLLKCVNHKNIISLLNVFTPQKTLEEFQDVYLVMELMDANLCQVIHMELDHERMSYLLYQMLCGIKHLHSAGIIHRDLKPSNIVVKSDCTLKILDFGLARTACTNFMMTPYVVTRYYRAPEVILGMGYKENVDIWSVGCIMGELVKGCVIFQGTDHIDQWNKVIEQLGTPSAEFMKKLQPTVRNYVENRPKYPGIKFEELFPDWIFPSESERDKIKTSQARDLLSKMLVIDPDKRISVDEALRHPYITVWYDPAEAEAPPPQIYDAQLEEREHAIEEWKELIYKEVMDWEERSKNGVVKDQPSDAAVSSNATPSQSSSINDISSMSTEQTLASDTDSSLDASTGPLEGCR
The source made the active and inactive calls.
Possible outcomes: 1 = active, 0 = inactive

- C[C@H]1CNCCCN1S(=O)(=O)c1cccc2cncc(F)c12: 0
- Cn1ncc(Cl)c1-c1cc(C(=O)N[C@H](CN)Cc2ccc(F)c(F)c2)oc1Cl [UPROSERTIB]: 0
- CNC(=O)c1nn(C)c2c1C(C)(C)Cc1cnc(Nc3ccc(N4CCN(C)CC4)cc3)nc1-2 [MILCICLIB]: 0
- O=C1NC(=O)[C@@H](c2cn3c4c(cccc24)CCC3)[C@@H]1c1c[nH]c2ccccc12 [TIVANTINIB]: 0
- CNC(=O)c1cc(Oc2ccc(NC(=O)Nc3cc(C(C)(C)C)nn3-c3ccc4ncccc4c3)c(F)c2)ccn1 [REBASTINIB]: 1
- CO[C@H]1C[C@@H]2CC[C@@H](C)[C@@](O)(O2)C(=O)C(=O)N2CCCC[C@H]2C(=O)O[C@H]([C@H](C)C[C@@H]2CC[C@@H](OP(C)(C)=O)[C@H](OC)C2)CC(=O)[C@H](C)/C=C(\C)[C@@H](O)[C@@H](OC)C(=O)[C@H](C)C[C@H](C)/C=C/C=C/C=C/1C [RIDAFOROLIMUS]: 0
- NC(=O)Nc1cc(-c2cccc(F)c2)sc1C(=O)N[C@H]1CCCNC1 [AZD-7762]: 0
